The reported measurements were obtained from PubChem BioAssay.

# test method notes: small molecules captured by biotinylated probe aFST – biochemical, small-molecule microarray, fluorescence 635/667, stem cell growth factor project, primary screen (AID 1086);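 further: score merges 667 nm fluorescence with signal-to-noise of each printed compound spot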
# condition description: higher = more signal
Please use Met whenever composite z-score is not below 1, and Not met whenever it is.

Inquiry: Check this compound for composite z-score at or above 1: COc1ccc([Si](C)(C)[C@@H]2[C@@H](CCO)O[C@]3(C(=O)N(Cc4ccccc4)c4ccc(N(C=O)c5ccccc5)cc43)[C@H]2C)cc1
Reply text: Not met

Inquiry: Exam item: decide whether the reported composite z-score for COCCOC(=O)N1C(=O)[C@@]2(c3cc(C#CC4=CCCCC4)ccc31)[C@H](C(=O)N1CCN(c3ncccn3)CC1)[C@H]1C(=O)O[C@H](c3ccccc3)[C@H](c3ccccc3)N1[C@@H]2c1ccc(OCCO)cc1 is at least 1.
Reply text: Not met

Inquiry: Determine whether this compound has composite z-score no lower than 1: CC(C)(C)OC(=O)CC[C@@]1(C(=O)N2CCOCC2)N=C(c2ccc(OCCCO)cc2)O[C@@H]1c1ccccc1N=[N+]=[N-]
Reply text: Met

Inquiry: Dear colleague, could you confirm whether Cc1ccc(C(C)CC(O)C2C=CC3C(=O)NC(=O)C3N2Nc2ccccn2)o1 (stereo unspecified) has composite z-score at or above 1?
Reply text: Not met

###

# Test system: PRMT1 (protein arginine N-methyltransferase 1)
# test method notes: small molecules binding arginine methyltransferase PRMT1 – biochemical, small-molecule microarray, 635 nm fluorescence, primary screen (AID 1088);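 further: binding of Prmt1 protein to compounds spotted on small-molecule microarray slides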
# condition description: higher = more signal
Exercise: for every item that follows, state its recorded composite z-score.
API doc: respond with a numeric literal and nothing else, no unit.

Inquiry: I have this compound here, O=C1O[C@H](c2ccccc2)[C@H](c2ccccc2)N2[C@H]1[C@@H](C(=O)N1CCCCCCC1)[C@]1(C(=O)Nc3ccc(C#CC4=CCCCC4)cc31)[C@H]2c1ccc(O)cc1 , and I need its recorded composite z-score.
Reply text: 1.56

Inquiry: So what does the record say about composite z-score for C=CC[C@@]1(C(=O)NCc2ccccc2)N=C(c2ccc(OCCCO)cc2)O[C@@H]1c1ccccc1CN=[N+]=[N-] ?
Reply text: 0.985

Inquiry: Data request, read-out composite z-score, for O=C1O[C@@H](c2ccccc2)[C@@H](c2ccccc2)N2[C@@H](c3ccc(O)cc3)[C@]3(C(=O)Nc4ccc(C#CCCO)cc43)[C@@H](C(=O)N3CCCCCCC3)[C@H]12
Reply text: 1.55

Inquiry: Consider the compound Cc1ccc(S[C@]2(C(=O)NCC(C)C)CC(=O)N(Cc3ccccc3)[C@@H]2c2ccc(CO)cc2)cc1 and give its measured composite z-score.
Reply text: 0.744

Inquiry: Which composite z-score is reported for this compound? O=C1OCCC=C[C@H]2OC34C=CCN(c5ccc6ccccc6c5)C(=O)[C@H]3N(CCCCCCO)C(=O)[C@@H]4C12 (some centres not stated)
Reply text: 0.864

Inquiry: Which composite z-score is listed for Cc1ccc(S(=O)(=O)N2CC(C(=O)O)=CCC2c2ccccc2)cc1 (configuration not stated) ?
Reply text: 0.461

Inquiry: Sample CCOC(=O)C[C@H]1[C@H](OC(=O)c2ccc(C(=O)c3ccccc3)cc2)[C@@H](NC(=O)c2ccc3ccccc3n2)c2cc(OCCCO)ccc2N1C(=O)c1ccc2ccccc2n1 — what was its composite z-score?
Reply text: 0.424

###

# tested system: Dickkopf-related protein 1 (Homo sapiens) (UniProt O94907)
# Sequence (O94907 whole entry, looked up): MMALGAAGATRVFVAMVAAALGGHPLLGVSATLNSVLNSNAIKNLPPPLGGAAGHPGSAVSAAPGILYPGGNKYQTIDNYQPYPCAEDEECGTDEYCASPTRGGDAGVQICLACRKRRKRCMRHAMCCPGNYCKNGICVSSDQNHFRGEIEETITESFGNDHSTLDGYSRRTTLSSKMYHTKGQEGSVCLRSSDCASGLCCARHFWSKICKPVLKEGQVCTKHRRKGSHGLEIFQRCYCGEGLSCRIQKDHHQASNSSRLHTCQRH
# test method notes: small molecules binding DKK1 protein – biochemical, small-molecule microarray, 635 nm fluorescence scan, primary screen (AID 1106);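 further: score merges emission near 667 nm with signal to noise over three replicate slides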
# condition description: higher = more signal
Satisfied means recorded composite z-score is 0.7 or above; Not satisfied means it is below 0.7.

Inquiry: Record COc1ccc([Si](C)(C)[C@@H]2[C@@H](CCO)O[C@]3(C(=O)N(Cc4cccc(N(C=O)c5ccccc5)c4)c4ccccc43)[C@H]2C)cc1 ; criterion: composite z-score no lower than 0.7. Met?
Reply text: Not satisfied

Inquiry: API: above_or_equal(metric=composite z-score, cutoff=0.7) for item C=CCN1Cc2ccccc2C[C@]2(N=C(c3ccc(OCCCO)cc3)O[C@@H]2c2ccccc2)C1=O
Reply text: Satisfied

Inquiry: Could you please find out whether NC(=O)NCC#Cc1ccc2c(c1)[C@]1(C(=O)N2)[C@H](c2ccccc2OCCO)N2[C@H](c3ccccc3)[C@H](c3ccccc3)OC(=O)[C@H]2[C@@H]1C(=O)N1CCCCCCC1 has composite z-score that meets 0.7 or exceeds it?
Reply text: Satisfied

Inquiry: Determine whether this compound has composite z-score no lower than 0.7: O=C1C2C=CC(C(O)c3cccc4ccccc34)N(n3cnnc3)C2C(=O)N1Cc1ccccc1 (centres undefined)
Reply text: Not satisfied

Inquiry: State whether the measured composite z-score reaches 0.7, counting equality as reaching it, for O=C1[C@H]2C=C(Br)[C@H](C[C@@H]2OCCOCCO)[C@@]12CO2
Reply text: Not satisfied

Inquiry: Assess whether reported composite z-score for CC(C)C[C@@H]1NC(=O)[C@@H]2C[C@H](C(=O)NCCCCN(C)C)[C@H](c3ccc(O)cc3)N2C1=O sits at 0.7 or higher.
Reply text: Not satisfied

Inquiry: composite z-score >= 0.7 for CC1CC/C=C\[C@H]2OC34C=CCN(c5ccc6ccccc6c5)C(=O)[C@H]3N(CCCCCO)C(=O)[C@@H]4C2C(=O)O1 (some centres undefined) ?
Reply text: Not satisfied

Inquiry: Please check the record CC(C)(C)OC(=O)CC[C@]1(C(=O)NCC(O)CO)N=C(c2ccc(OCCCO)cc2)O[C@H]1c1ccccc1CN=[N+]=[N-] (some centres undefined) and state if its composite z-score is at or above 0.7.
Reply text: Not satisfied

Inquiry: State whether the measured composite z-score reaches 0.7, counting equality as reaching it, for COc1ccc(C(=O)Nc2cccc(CN3C(=O)[C@@]4(O[C@@H](CC(=O)N5Cc6ccccc6C[C@H]5CO)[C@H]([Si](C)(C)c5ccc(OC)cc5)[C@H]4C)c4ccccc43)c2)cc1
Reply text: Satisfied

Inquiry: In plain terms: is recorded composite z-score at least 0.7 for Cc1ccc(N2C(=O)c3ccccc3[C@@H](C(=O)NCC(C)C)[C@@H]2c2ccc(CO)cc2)nc1 ?
Reply text: Not satisfied

Inquiry: Please tell me: is the compound C=CCNC(=O)[C@H]1[C@@H]2C(=O)O[C@@H](c3ccccc3)[C@@H](c3ccccc3)N2[C@@H](c2ccc(OCCO)cc2)[C@]12C(=O)N(C(=O)OCCOC)c1ccc(C#CC3(O)CCCCCC3)cc12 at or over 0.7 in terms of composite z-score?
Reply text: Satisfied

Inquiry: Quick check, composite z-score >= 0.7? COCCn1c(C(=O)N2CCCC2)cc2c1C[C@H]1CN(C(=O)c3ccccc3)[C@@](Cc3ccc(OC)cc3)(C(=O)OC)[C@@H]21
Reply text: Not satisfied

Inquiry: Textbook exercise: given the entry COCCOC(=O)N1C(=O)[C@@]2(c3cc(C#CCCO)ccc31)[C@H](c1ccc(O)cc1)N1[C@H](c3ccccc3)[C@H](c3ccccc3)OC(=O)[C@H]1[C@@H]2C(=O)N1CCCCCCC1 , state whether its composite z-score is greater than or equal to 0.7.
Reply text: Satisfied

Inquiry: Given Oc1ccc2cc[n+](Cc3cccc(OC(F)(F)F)c3)cc2c1 , state whether its composite z-score is at least 0.7.
Reply text: Satisfied
